The reported measurements were obtained from patent US9175003B2.

target: UniProt P43220
conditionSummary: read-out: Mean EC50; cAMP, HTRF detection, 30 min at 37° C., HEK-293 cells expressing cloned human GLP-1 receptor
recordedEndpoint: EC50 (nM)
Field: numeric (nM). Do not append units.

Please review the following examples before continuing.
smilesString	EC50 (nM)
CC[C@@H](c1ccccc1)N1Cc2cc3c(cc2C[C@H]1C(=O)N[C@@H](Cc1ccc(-c2ccc(C#N)cc2)cc1)C(=O)O)OC[C@H](c1ccc(OCc2ccc(Cl)c(Cl)c2)cc1)O3	480
Cc1ncoc1C(=O)N1Cc2cc3c(cc2C[C@H]1C(=O)N[C@@H](Cc1ccc(-c2ccnc(C)c2C)cc1)C(=O)O)OC[C@H](c1ccc(OCc2ccc(Cl)c(Cl)c2)cc1)O3	146

Let's switch to this compound now.
Quick check: EC50 on UniProt P43220, item CCC[C@@H](c1ccccc1)N1Cc2cc3c(cc2C[C@H]1C(=O)N[C@@H](Cc1ccc(-c2ccc(C#N)cc2)cc1)C(=O)O)OC[C@H](c1ccc(OCc2ccc(Cl)c(Cl)c2)cc1)O3 ?
306

====

target: human GLP-1 receptor (Homo sapiens (Human))
conditionSummary: read-out: Mean EC50; cAMP, HTRF detection, 30 min at 37° C., HEK-293 cells expressing cloned human GLP-1 receptor
Attribute: EC50
Lab note: write values as number then unit, every time.

smilesString	EC50
Cc1nc(C(=O)N2Cc3cc4c(cc3C[C@H]2C(=O)N[C@@H](Cc2ccc(-c3ccnc(C)c3C)cc2)C(=O)O)OC[C@H](c2ccc(O[C@H]3CC[C@@H](C)CC3)cc2)O4)c(C)o1	0.313 µM
Cc1nccc(Oc2ccc(C[C@H](NC(=O)[C@@H]3Cc4cc5c(cc4CN3C(=O)OC(C)(C)C)O[C@@H](c3ccc(OCc4ccc(Cl)c(Cl)c4)cc3)CO5)C(=O)O)cc2)c1C	0.138 µM
CCC(C)(C)NC(=O)N1Cc2cc3c(cc2C[C@H]1C(=O)N[C@@H](Cc1ccc(-c2ccnc(C)c2C)cc1)C(=O)O)OC[C@H](c1ccc(OCc2ccc(Cl)c(Cl)c2)cc1)O3	0.183 µM
Cc1nc(C(=O)N2Cc3cc4c(cc3C[C@H]2C(=O)N[C@@H](Cc2ccc(-c3ccnc(C)c3C)cc2)C(=O)O)OC[C@H](c2ccc(OCc3ccc(Cl)c(Cl)c3)cc2)O4)c(C)o1	0.017 µM

Let us examine a further case.
I'm curious: which EC50 was measured for Cc1nc(C(=O)N2Cc3cc4c(cc3C[C@H]2C(=O)N[C@@H](Cc2ccc(-c3ccnc(C)c3C)cc2)C(=O)O)OC[C@H](c2ccc(OCC3CCCC3)cc2)O4)c(C)o1 tested on human GLP-1 receptor (Homo sapiens (Human))?
0.152 µM

====

target: human GLP-1 receptor (Homo sapiens (Human), UniProt P43220)
Sequence (P43220 24-463): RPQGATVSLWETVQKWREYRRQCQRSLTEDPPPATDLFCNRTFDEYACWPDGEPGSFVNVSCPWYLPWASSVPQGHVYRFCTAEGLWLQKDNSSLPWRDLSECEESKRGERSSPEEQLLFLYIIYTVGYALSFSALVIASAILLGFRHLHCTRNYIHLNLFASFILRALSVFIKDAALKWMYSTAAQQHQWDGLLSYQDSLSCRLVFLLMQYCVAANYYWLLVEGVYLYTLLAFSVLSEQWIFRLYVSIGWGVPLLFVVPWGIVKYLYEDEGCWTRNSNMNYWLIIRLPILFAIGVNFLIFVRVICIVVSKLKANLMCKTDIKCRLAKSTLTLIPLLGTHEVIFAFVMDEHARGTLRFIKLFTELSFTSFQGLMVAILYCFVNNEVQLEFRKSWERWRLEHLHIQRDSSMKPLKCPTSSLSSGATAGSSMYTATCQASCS
conditionSummary: read-out: Mean EC50; cAMP, HTRF detection, 30 min at 37° C., HEK-293 cells expressing cloned human GLP-1 receptor
Listing of entries alongside the reported log10 of EC50.
Please note: log10 values; quantity EC50; unit nM.

molecule	target	log10 of EC50
CC[C@@H](c1ccccc1)N1Cc2cc3c(cc2C[C@H]1C(=O)N[C@@H](Cc1ccc(-c2ccnc(C)c2C)cc1)C(=O)O)OC[C@H](c1ccc(OCc2ccccc2)cc1)O3	human GLP-1 receptor (Homo sapiens (Human), UniProt P43220)	1.41
Cc1nccc(-c2ccc(C[C@H](NC(=O)[C@@H]3Cc4cc5c(cc4CN3C(=O)c3cccc(O)c3)O[C@@H](c3ccc(OCc4ccc(Cl)c(Cl)c4)cc3)CO5)C(=O)O)cc2)c1C	human GLP-1 receptor (Homo sapiens (Human), UniProt P43220)	2.16
CC[C@H](NC(=O)N1Cc2cc3c(cc2C[C@H]1C(=O)N[C@@H](Cc1ccc(-c2ccnc(C)c2C)cc1)C(=O)O)OC[C@H](c1ccc(OCc2ccc(Cl)c(Cl)c2)cc1)O3)c1ccccc1	human GLP-1 receptor (Homo sapiens (Human), UniProt P43220)	2.31

Would you mind telling me what log10 of EC50 value was observed for Cc1nccc(-c2ccc(C[C@H](NC(=O)[C@@H]3Cc4cc5c(cc4CN3C(=O)N[C@H](C)c3ccccc3)O[C@H](c3ccc(OCc4ccc(Cl)c(Cl)c4)cc3)CO5)C(=O)O)cc2)c1C ?
1.51

Report log10 of EC50 for CC[C@@H](c1ccccc1)N1Cc2cc3c(cc2C[C@H]1C(=O)N[C@@H](Cc1ccc(-c2ccnc(C)c2C)cc1)C(=O)O)OC[C@H](c1ccc(OCc2cccnc2)cc1)O3 please.
2.06

Look at this molecule and give its reported log10 of EC50. COc1cccc(CN2Cc3cc4c(cc3C[C@H]2C(=O)N[C@@H](Cc2ccc(-c3ccnc(C)c3C)cc2)C(=O)O)OC[C@H](c2ccc(OCc3ccc(Cl)c(Cl)c3)cc2)O4)n1
1.88

// returns reported log10 of EC50 for input N#Cc1ccc(-c2ccc(C[C@H](NC(=O)[C@@H]3Cc4cc5c(cc4CN3C(=O)c3ccoc3)OC(c3ccc(OCc4ccc(Cl)c(Cl)c4)cc3)CO5)C(=O)O)cc2)cc1 (stereo in doubt)
2.93

# log10 of EC50 lookup, item CC[C@@H](c1ccccc1)N1Cc2cc3c(cc2C[C@H]1C(=O)N[C@@H](Cc1ccc(Oc2ccnc(C)c2)cc1)C(=O)O)OC[C@H](c1ccc(OCc2ccc(Cl)c(Cl)c2)cc1)O3
1.20

Which log10 of EC50 value is on record for Cc1sc(N)nc1S(=O)(=O)N1Cc2cc3c(cc2C[C@H]1C(=O)N[C@@H](Cc1ccc(-c2ccc(C#N)cc2)cc1)C(=O)O)OCC(c1ccc(OCc2ccc(Cl)c(Cl)c2)cc1)O3 (stereo in doubt) ?
2.66

Query (molecule): Cc1nccc(-c2ccc(C[C@H](NC(=O)[C@@H]3Cc4cc5c(cc4CN3C(=O)NC3(C)CCC3)O[C@@H](c3ccc(OCc4ccc(Cl)c(Cl)c4)cc3)CO5)C(=O)O)cc2)c1C ; field requested: log10 of EC50
1.65

Which measured log10 of EC50 value corresponds to CC[C@@H](c1ccccc1)N1Cc2cc3c(cc2C[C@H]1C(=O)N[C@@H](Cc1ccc(-c2ccnc(O)c2)cc1)C(=O)O)OC[C@H](c1ccc(OCc2ccc(Cl)c(Cl)c2)cc1)O3 ?
2.14

====

# pEC50 annotations
target: human GLP-1 receptor (Homo sapiens (Human), UniProt P43220)
conditionSummary: read-out: Mean EC50; cAMP, HTRF detection, 30 min at 37° C., HEK-293 cells expressing cloned human GLP-1 receptor
// field semantics: pEC50 = negative decimal log of concentration (mol/L)

Previously resolved entries follow.
molecule	target	numericValue
Cc1nc(C)c(S(=O)(=O)N2Cc3cc4c(cc3C[C@H]2C(=O)N[C@@H](Cc2ccc(-c3ccc(C#N)cc3)cc2)C(=O)O)OCC(c2ccc(OCc3ccc(Cl)c(Cl)c3)cc2)O4)s1 (stereo in doubt)	human GLP-1 receptor (Homo sapiens (Human), UniProt P43220)	6.95
Cc1nc(C(=O)N2Cc3cc4c(cc3C[C@H]2C(=O)N[C@@H](Cc2ccc(-c3ccnc(C)c3C)cc2)C(=O)O)OC[C@H](c2ccc(OCC3CCC(C(F)(F)F)CC3)cc2)O4)c(C)o1 (stereo partly shown)	human GLP-1 receptor (Homo sapiens (Human), UniProt P43220)	6.74
Cc1nc(C(=O)N2Cc3cc4c(cc3C[C@H]2C(=O)N[C@@H](Cc2ccc(-c3ccnc(C)c3C)cc2)C(=O)O)OC[C@H](c2ccc(OCc3cccc(Cl)c3Cl)cc2)O4)c(C)o1	human GLP-1 receptor (Homo sapiens (Human), UniProt P43220)	7.05
CC[C@@H](c1ccccc1)N1Cc2cc3c(cc2C[C@H]1C(=O)N[C@@H](Cc1ccc(-c2ccnc(C)c2C)cc1)C(=O)O)OC[C@H](c1ccc(Oc2ccccc2)cc1)O3	human GLP-1 receptor (Homo sapiens (Human), UniProt P43220)	6.69
Cc1nc(NC(=O)C(F)(F)F)sc1S(=O)(=O)N1Cc2cc3c(cc2C[C@H]1C(=O)N[C@@H](Cc1ccc(-c2ccc(C#N)cc2)cc1)C(=O)O)OCC(c1ccc(OCc2ccc(Cl)c(Cl)c2)cc1)O3 (stereo in doubt)	human GLP-1 receptor (Homo sapiens (Human), UniProt P43220)	6.59
Cc1nccc(Oc2ccc(C[C@H](NC(=O)[C@@H]3Cc4cc5c(cc4CN3S(=O)(=O)C(C)C)O[C@@H](c3ccc(OCc4ccc(Cl)c(Cl)c4)cc3)CO5)C(=O)O)cc2)c1C	human GLP-1 receptor (Homo sapiens (Human), UniProt P43220)	6.49
Cc1nccc(-c2ccc(C[C@H](NC(=O)[C@@H]3Cc4cc5c(cc4CN3C(=O)c3cc(F)cc(F)c3)O[C@@H](c3ccc(OCc4ccc(Cl)c(Cl)c4)cc3)CO5)C(=O)O)cc2)c1C	human GLP-1 receptor (Homo sapiens (Human), UniProt P43220)	7.35
Cc1cc(C(=O)N2Cc3cc4c(cc3C[C@H]2C(=O)N[C@@H](Cc2ccc(Oc3ccnc(C)c3C)cc2)C(=O)O)OC[C@H](c2ccc(OCc3ccc(Cl)c(Cl)c3)cc2)O4)n(C)n1	human GLP-1 receptor (Homo sapiens (Human), UniProt P43220)	6.88

So what does the record say about pEC50 for Cc1nccc(-c2ccc(C[C@H](NC(=O)[C@@H]3Cc4cc5c(cc4CN3C(=O)N[C@H](C)c3ccccc3)O[C@@H](c3ccc(OCc4ccc(Cl)c(Cl)c4)cc3)CO5)C(=O)O)cc2)c1C ?
7.25

What measured pEC50 goes with Cc1nccc(Oc2ccc(C[C@H](NC(=O)[C@@H]3Cc4cc5c(cc4CN3C(=O)NC(C)(C)C)O[C@@H](c3ccc(OCc4ccc(Cl)c(Cl)c4)cc3)CO5)C(=O)O)cc2)c1C ?
6.91
